Reference source: ChEMBL document CHEMBL4689842

- System: Fibroblast
- Run Description: Multiplex assay against human fibroblast
- Format: toxicity, cell-based
- Test Context: 12 h, 1 µM, compound concentration 1 uM, replicate 1
Collected Population Hoechst High Intensity Objects (%) values appear next to each entry.
The answer is to be given in %; state only the numeric part.

Use the examples below as a reference point.
INSERT INTO measurements (compound, target_entity, recorded_measurement) VALUES
  ('CC(C)NC(=O)N1CC[C@H](NC2=Nc3cc(F)ccc3N(CC(F)F)c3ccc(Cl)cc32)C1', 'Fibroblast', 12),
  ('CCOC(=O)Nc1cc(-c2ccc(C)c(NS(C)(=O)=O)c2)nn2c(C)nnc12', 'Fibroblast', 9);

Prompt: Quick one: Population Hoechst High Intensity Objects (%) for Cc1nc(N2CC[C@H](O)C2)ncc1-c1cc(C(F)(F)F)cc2[nH]ncc12 ?
Completion: 12

Prompt: Quick one: Population Hoechst High Intensity Objects (%) for CCc1ccc(OCc2ccccc2C(=O)Nc2ccc3nc(C)cc(N)c3c2)cc1.Cl ?
Completion: 11

Prompt: Quick one: Population Hoechst High Intensity Objects (%) for COc1ccc(-c2ccc3ncc4c(c3c2)n(-c2ccc(N3CCNCC3)c(C(F)(F)F)c2)c(=O)n4C)cn1.O=C(O)/C=C\C(=O)O ?
Completion: 14

Prompt: Quick one: Population Hoechst High Intensity Objects (%) for COC(=O)C1=C(C)NC(C)=C(C(=O)OCCCN2CCC(c3ccccc3)(c3ccccc3)CC2)[C@H]1c1cccc([N+](=O)[O-])c1 ?
Completion: 12

Prompt: Quick one: Population Hoechst High Intensity Objects (%) for CC(C)c1noc(N2CCC(COc3ccc(-c4ccc(S(C)(=O)=O)cc4)nc3)CC2)n1 ?
Completion: 12

Prompt: Quick one: Population Hoechst High Intensity Objects (%) for CCc1nn(CCCN2CCN(c3cccc(Cl)c3)CC2)c(=O)n1CCOc1ccccc1.Cl [NEFAZODONE HYDROCHLORIDE] ?
Completion: 13

====

Collected Growth Rate values appear next to each entry.
- Tested on: Fibroblast
- Run Description: Incucyte cell viability with human fibroblast; further: filed as whole numbers so only -1 and 0 and 1 occur
- Format: toxicity, cell-based
- Test Context: 6 h, 10 µM, compound concentration 10 uM, replicate number 2, timepoint 6 hours

Use the examples below as a reference point.
INSERT INTO assay_data (molecule, recorded_measurement) VALUES
  ('Cc1nc(N2CC[C@H](O)C2)ncc1-c1cc(C(F)(F)F)cc2[nH]ncc12', 0),
  ('CO[C@@H](C)c1c(Nc2ccc([C@H](N(C)C(=O)C3CCS(=O)(=O)CC3)C(F)(F)F)cc2)cnc2cc(Cl)nn12 [NVS-MALT1]', 1),
  ('CCOC(=O)CCNc1cc(N2CCc3ccccc3CC2)nc(-c2cccnc2)n1', 0),
  ('CC(C)Oc1ccc(-c2c[nH]cc2CN(C)CCN)cc1', 0),
  ('CSc1cccnc1N1CCN(Cc2nc3ccccc3[nH]2)CC1 [A-769]', 1),
  ('CC(C)(O)c1ccccc1CC[C@@H](SCC1(CC(=O)[O-])CC1)c1cccc(/C=C/c2ccc3ccc(Cl)cc3n2)c1.[Na+] [MONTELUKAST SODIUM]', 0);

Prompt: Quick one: Growth Rate for CN1CCc2c(c3ccccc3n2Cc2ccc(C(=O)NO)cc2)C1 [TUBASTATIN A] ?
Completion: 0

Prompt: Quick one: Growth Rate for CN(C)C(=O)/C(C#N)=C/c1ccc(-c2nc3cnc4c(ccn4C)c3n2C2CCCCC2)o1 ?
Completion: 1

====

- Test system: Fibroblast
- Run Description: Multiplex assay against human fibroblast
- Assay type: toxicity, cell-based
- Test Context: 12 h, 10 µM, compound concentration 10 uM, replicate 2
Label condition met when Population Mitotic Cells (%) < 30%; otherwise condition not met.

INSERT INTO results (molecule, class) VALUES
  ('Cc1nc(N2CC[C@H](O)C2)ncc1-c1cc(C(F)(F)F)cc2[nH]ncc12', 'condition not met'),
  ('C[C@]12CC[C@@H]3c4ccc(O)cc4CC[C@H]3[C@@H]1CC[C@@H]2O [ESTRADIOL]', 'condition not met');

Prompt: # strict comparison: is reported Population Mitotic Cells (%) < 30%? input = C=CC(=O)Nc1cccc(Sc2nc(Nc3ccc(N4CCN(C)CC4)cc3)ncc2Cl)c1
Completion: condition met

Prompt: # strict comparison: is reported Population Mitotic Cells (%) < 30%? input = CC(C)NC(=O)N1CC[C@H](NC2=Nc3cc(F)ccc3N(CC(F)F)c3ccc(Cl)cc32)C1
Completion: condition not met

Prompt: # strict comparison: is reported Population Mitotic Cells (%) < 30%? input = CCCSc1nc(N[C@@H]2C[C@H]2c2ccc(F)c(F)c2)c2nnn([C@@H]3C[C@H](OCCO)[C@@H](O)[C@H]3O)c2n1 [TICAGRELOR]
Completion: condition met

Prompt: # strict comparison: is reported Population Mitotic Cells (%) < 30%? input = Cc1ccccc1C(c1ccccc1C)N1C2CCC1CC(O)(c1ccccc1)C2 (stereo not given)
Completion: condition not met

Prompt: # strict comparison: is reported Population Mitotic Cells (%) < 30%? input = CC(C)c1noc(N2CCC(COc3ccc(-c4ccc(S(C)(=O)=O)cc4)nc3)CC2)n1 [GSK-1292263]
Completion: condition not met

Prompt: # strict comparison: is reported Population Mitotic Cells (%) < 30%? input = Cc1ccc2c(c1)c1c(n2CCc2ccc(C)nc2)CCN(C)C1 [LATREPIRDINE]
Completion: condition met

Prompt: # strict comparison: is reported Population Mitotic Cells (%) < 30%? input = C=CC(=O)Nc1cccc(Oc2nc(Nc3ccc(N4CCN(C)CC4)cc3OC)ncc2Cl)c1
Completion: condition not met

Prompt: # strict comparison: is reported Population Mitotic Cells (%) < 30%? input = CC1=C(C(=O)Nc2cc3cn[nH]c3cc2F)C(c2ccc(C(F)(F)F)cc2)CC(=O)N1 (stereo not given)
Completion: condition not met

Prompt: # strict comparison: is reported Population Mitotic Cells (%) < 30%? input = CNC(=O)Nc1ccc2c(c1)[C@@]1(CC2)OC(=O)N(CC(=O)N(Cc2ccc(F)cc2)[C@@H](C)C(F)(F)F)C1=O [A-486]
Completion: condition not met

Prompt: # strict comparison: is reported Population Mitotic Cells (%) < 30%? input = CN1CCN(Cc2ccc(Nc3ncc(Cl)c(Nc4ccccc4S(=O)(=O)N(C)C)n3)cc2)CC1 [DUBERMATINIB]
Completion: condition met

Prompt: # strict comparison: is reported Population Mitotic Cells (%) < 30%? input = CC(C)Oc1ccccc1C(=O)Nc1ccccc1C(=O)Nc1cccc(S(=O)(=O)C(F)(F)F)c1
Completion: condition met

Prompt: # strict comparison: is reported Population Mitotic Cells (%) < 30%? input = O=c1cc(N2CCOCC2)oc2c(-c3cccc4c3sc3ccccc34)cccc12
Completion: condition not met

Prompt: # strict comparison: is reported Population Mitotic Cells (%) < 30%? input = CNC(=O)Nc1ccc(-c2nc(N3CC4CCC(C3)O4)c3cnn(C4CCC5(CC4)OCCO5)c3n2)cc1
Completion: condition not met

Prompt: # strict comparison: is reported Population Mitotic Cells (%) < 30%? input = COC(=O)C1=C(C)NC(C)=C(C(=O)OCCCN2CCC(c3ccccc3)(c3ccccc3)CC2)[C@H]1c1cccc([N+](=O)[O-])c1 [NIGULDIPINE]
Completion: condition met

Prompt: # strict comparison: is reported Population Mitotic Cells (%) < 30%? input = Cl.O=C(O)c1cc(-c2ccc(C3CCNCC3)cc2)c2ccc(-c3ccc(C(F)(F)F)cc3)cc2c1
Completion: condition not met

Prompt: # strict comparison: is reported Population Mitotic Cells (%) < 30%? input = Cc1cccc(CN2CCN(C(c3ccccc3)c3ccc(Cl)cc3)CC2)c1.Cl.Cl (stereo not given)
Completion: condition not met

Prompt: # strict comparison: is reported Population Mitotic Cells (%) < 30%? input = CC(C)CC(=O)Nc1[nH]nc2c1CN(C(=O)C1CCN(C)CC1)C2(C)C [PHA-793887]
Completion: condition not met

Prompt: # strict comparison: is reported Population Mitotic Cells (%) < 30%? input = C=CC(=O)Nc1ccc2[nH]c(=O)n(C3CCN(Cc4ccc(-c5nc6cc[nH]c(=O)c6cc5-c5ccccc5)cc4)CC3)c2c1 [Borussertib]
Completion: condition not met

====

- System: U2OS
- Run Description: Multiplex assay against U2OS
- Type: toxicity, cell-based
- Test Context: human, 12 h, 1 µM, compound concentration 1 uM, replicate 2
Readout: Population Membrane Permeable-Phenotype (%)
The answer is to be given in %; state only the numeric part.

Use the examples below as a reference point.
INSERT INTO results (compound, target_entity, recorded_measurement) VALUES
  ('COC(=O)C1=C(C)NC(C)=C(C(=O)OCCCN2CCC(c3ccccc3)(c3ccccc3)CC2)[C@H]1c1cccc([N+](=O)[O-])c1 [NIGULDIPINE]', 'U2OS', 66),
  ('COc1ccccc1CN[C@H]1C2CCN(CC2)[C@H]1C(c1ccccc1)c1ccccc1 [CP-96345]', 'U2OS', 4);

Prompt: Quick one: Population Membrane Permeable-Phenotype (%) for CC(C)NC(=O)N1CC[C@H](NC2=Nc3cc(F)ccc3N(CC(F)F)c3ccc(Cl)cc32)C1 ?
Completion: 4

Prompt: Quick one: Population Membrane Permeable-Phenotype (%) for CCc1nn(CCCN2CCN(c3cccc(Cl)c3)CC2)c(=O)n1CCOc1ccccc1.Cl [NEFAZODONE HYDROCHLORIDE] ?
Completion: 3

Prompt: Quick one: Population Membrane Permeable-Phenotype (%) for CN1CCN(Cc2ccc(Nc3ncc(Cl)c(Nc4ccccc4S(=O)(=O)N(C)C)n3)cc2)CC1 [DUBERMATINIB] ?
Completion: 4

Prompt: Quick one: Population Membrane Permeable-Phenotype (%) for CC(C)CC(=O)Nc1[nH]nc2c1CN(C(=O)C1CCN(C)CC1)C2(C)C [PHA-793887] ?
Completion: 9

Prompt: Quick one: Population Membrane Permeable-Phenotype (%) for Cc1nc(N2CC[C@H](O)C2)ncc1-c1cc(C(F)(F)F)cc2[nH]ncc12 ?
Completion: 5

Prompt: Quick one: Population Membrane Permeable-Phenotype (%) for CC(C)OC(=O)N1CCC(Oc2ncnc3c2cnn3-c2ccc(S(C)(=O)=O)cc2F)CC1 ?
Completion: 4
